Measured clearance by item
test: Clearance in ICR mouse at 1 mg/kg, iv measured upto 24 hrs by LCMS analysis; format: ADME, organism-based; conditions: in vivo
value-kind: clearance (mL/min/kg)

smiles_record=C[C@H](Nc1nccc(N2C(=O)OC[C@@H]2[C@H](C)F)n1)c1ncn2c1CCc1cc(Cl)ccc1-2 test_value=50
smiles_record=C[C@H](Nc1nccc(N2C(=O)OC[C@@H]2[C@H](C)F)n1)c1ncn2c1CCc1cc(C(F)(F)F)ccc1-2 test_value=23
smiles_record=C[C@H](Nc1ncc(F)c(N2C(=O)OC[C@@H]2[C@H](C)F)n1)c1ncn2c1CCc1cc(C(F)(F)F)ccc1-2 test_value=21
smiles_record=CC(C)[C@H]1COC(=O)N1c1ccnc(N[C@@H](C)c2ncn3c2CCc2cc(C(F)(F)F)ccc2-3)n1 test_value=109
smiles_record=C[C@H](Nc1nccc(N2C(=O)OC[C@@H]2[C@H](C)F)n1)c1ncn2c1COc1cc(Cl)ccc1-2 test_value=39
smiles_record=C[C@H](Nc1nccc(N2C(=O)OC[C@@H]2[C@H](C)F)n1)c1ncn2c1COc1cc(C(F)(F)F)ccc1-2 test_value=30
smiles_record=N#Cc1ccnc(N2C(=O)CC[C@H]2C(=O)N(c2cncc(F)c2)[C@H](C(=O)NC2CC(F)(F)C2)c2ccccc2Cl)c1 test_value=9

Where these numbers come from: ChEMBL document CHEMBL4406857
